- tested on: H5N1 A/Vietnam/1203/2004 hemagglutinin ectodomain, biotinylated HA0 (influenza A virus A/Vietnam/1203/2004 …)
- run description: SPR
Positions of bridges follow the written chain, without caps; N, C: chain ends. Non-standard residues stand in square brackets, D forms with d. No end group written: not given here.
Classify: YES when Kd is strictly less than 2 µM; NO when Kd is not.

QUERY: Is it true that Kd reported for LYEDPLGVAGGMG (non-template-based cyclic peptide (direct head-to-tail cyclization)) [cyclic peptide CP14] is less than 2 µM?
RESULT: NO

QUERY: Same read-out for CLYRDPLGVAGGMGC (disulfide 1-15) [cyclic peptide CP8] ?
RESULT: YES

QUERY: And then CYRDPLGVAGEMC (also: cyclic peptide, ring closure not given here) [cyclic peptide CP13] , what is it?
RESULT: NO

QUERY: Entry PGVSLYEDPLGVAGGMGVY (also: cyclic peptide, ring closure not given here) [cyclic peptide CP4] please
RESULT: YES

QUERY: For [dP]PVSLYEDPLGVAGGMGVY (also: cyclic peptide, ring closure not given here) [cyclic peptide CP1] then?
RESULT: YES

QUERY: And what about the binder PGLYEDPLGVAGGMG (also: cyclic peptide, ring closure not given here) [cyclic peptide CP6] ?
RESULT: NO
